Data provenance is patent US20250002507A1.

system: Human M4 (Homo sapiens, UniProt P08173)
Construct: expressed in transfected cells
protocol: mAChR M4 cell-based functional assay (calcium flux, potentiation of EC20 acetylcholine response), hM4-Gqi5 CHO-K1 cells
study-conditions: CHO-K1; Table 4; Human M4; % ACh maximum at 30 μM; read-out: Emax (% ACh maximum at 30 μM)
readout-kind: Emax at 30 µM (%)

Example results:
Cc1c(N2CCc3ncc(N4CC(C)Cn5nccc54)cc3C2)nn2c(C(F)(F)F)nnc2c1C (centres unmarked)    102
Cc1cc2cncn2nc1N1CCc2ncc(C(F)(F)F)cc2C1    84
COC1CCN(c2cnc3c(c2)CN(c2nn4c(C(F)(F)F)nnc4c(C)c2C)CC3)CC1    84
Cc1cc2nncn2nc1N1CCc2ncc(N3CCN(C)C(=O)C3)cc2C1    71
Cc1cnccc1Nc1cnc2c(c1)CN(c1nn3cnnc3c(C)c1C)CC2    63
Cc1cc2nncn2nc1N1CCc2ncc(Nc3ccncc3F)cc2C1    100

P: Cc1c(N2CCc3ncc(N4C[C@@H](C)O[C@@H](C)C4)cc3C2)nn2c(C(F)(F)F)nnc2c1C
Q: Cc1c(N2CCc3ncc(N4CCO[C@@H](c5ccccc5)C4)cc3C2)nn2c(C(F)(F)F)nnc2c1C
*Q* Hi team, can someone confirm which has the larger Emax at 30 µM: P or Q ? Thanks. Pick one; state its label.
*A* P

* * *

system: Human M4 (Homo sapiens)
Construct: expressed in transfected cells
Sequence (P08173 1-479): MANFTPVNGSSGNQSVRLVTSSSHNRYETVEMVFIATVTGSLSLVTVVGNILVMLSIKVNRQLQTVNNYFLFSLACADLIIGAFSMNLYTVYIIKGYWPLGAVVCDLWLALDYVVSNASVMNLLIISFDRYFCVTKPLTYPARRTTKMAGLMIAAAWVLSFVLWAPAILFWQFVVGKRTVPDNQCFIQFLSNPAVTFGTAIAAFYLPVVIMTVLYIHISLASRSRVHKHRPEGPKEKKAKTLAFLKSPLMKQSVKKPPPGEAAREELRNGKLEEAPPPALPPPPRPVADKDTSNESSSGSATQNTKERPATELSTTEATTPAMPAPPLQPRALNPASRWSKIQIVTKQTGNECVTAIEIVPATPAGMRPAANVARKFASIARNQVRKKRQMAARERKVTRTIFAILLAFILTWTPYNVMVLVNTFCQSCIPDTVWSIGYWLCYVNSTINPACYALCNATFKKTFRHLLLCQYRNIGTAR
protocol: mAChR M4 cell-based functional assay (calcium flux, potentiation of EC20 acetylcholine response), hM4-Gqi5 CHO-K1 cells
study-conditions: CHO-K1; Table 4; Human M4; % ACh maximum at 30 μM; read-out: Emax (% ACh maximum at 30 μM)
readout-kind: Emax at 30 µM (%)

Example results:
Cc1cc(Nc2cnc3c(c2)CN(c2nn4cnnc4c(C)c2C)CC3)c(F)cn1    93
Cc1c(N2CCc3ncc(N4CCOC[C@@H]4C)cc3C2)nn2c(C(F)(F)F)nnc2c1C    85

A: Cc1cc(Nc2cnc3c(c2)CN(c2nn4cnnc4cc2C)CC3)c(F)cn1
B: Cc1ccc(-c2cnc3c(c2)CN(c2nn4cnnc4c(C)c2C2CC2)CC3)cn1
*Q* Compare reported Emax at 30 µM values for A and B . Which is lower? Pick one; state its label.
*A* B
(B: 61%, A: 97%)
